assay_summary: protease stability score; higher = more stable; yeast display proteolysis, trypsin and chymotrypsin;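 also: relative to predicted unfolded state with 0 unfolded-like and 1 meaning tenfold more protease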
Label y for high-side protease stability score (at or above 2) and n for low-side protease stability score (below it).

seq_string: DQEEREDRKILKLLVELWRTGNEEVLEHLLDPNVKMRLEFEGREDSAHGRESMIEMLRRVWKVLGIKHERLESVHVFDGVVIITMRLSVDGREQDIQLLFFVYDGRIKSIVIRVRDR
classification: n
//
seq_string: DEHTKLLEDLVKILLFIRKTGDEDTFNKLFDPNVRLVQGDKTYHGRETFNKTMREWRIHHFEIKRSHFIGEWAEIDGHEDGDINGQKIRTDVEIILIIIDGRIKSIEYRPL
classification: n
//
seq_string: DHMDEELKEFLRHFLEYFRTGDFDSLYKLIDPHVKSDINGQEIHGMDLQSFWHRHIRERLGVNHMHIEITEIRYINGRAEVYGKLEVNVNGKRFEHDVHMFNLKVDGKWILESLEIR
classification: y
//
seq_string: DEEDEHALRMARLWWKALTTGDEELLHKLMDPDVRVEINGVEIHGRETYERFLHKLRRDLGVKHIEIQFHHIELYGEKIIIEGTIFIRQGDKEHKERSIIILVVVDGRIKSSKIILL
classification: y
//
seq_string: SEQEEITKKATEDMLRNIETGDPDMIDHLLDPDVRQEIIINGRSHENHGMEKLRKWLSTWHDEFKNVKYDLRTVEIIDGRVRIEGVLNVDGVDLHIEIRLVIVNGKLREVYHHVD
classification: n

---

assay_summary: protease stability score; higher = more stable; yeast display proteolysis, trypsin and chymotrypsin;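 also: relative to predicted unfolded state with 0 unfolded-like and 1 meaning tenfold more protease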

seq_string: DEDEHDSEIAVKLFVRHMETGDEDVLREYADPRTKILVNGRETHGWETYVKHMQETINKLGVKHTHFELKDVEVQGEKIIAHVRIELNFENHHTTINMILIIHKVDGRWHLKKMKIK
protease stability score: 0.871
//
seq_string: REIEEDVEKALRLWEKTMFTGDEDRFMELADPHTRVTFNGREVIGMEIWKTLVEELGIDVIKDTRIHDVKVQGNKVHVDSHRHVHFNGKTVEIRTRLIATKFDGRWHIESIRFQ
protease stability score: 0.803
//
seq_string: DEEHEEYHRMFRVVEHAYRTGDWKTLSDYMDPNAKQTVGNKEYHGREQVDESLKRLGIKVTDVEDSKEDHINGRLVVRLDQHLEVNGRRIKIHVLIIIIKINGRWIITENMYIFH
protease stability score: 0.141

---

Reported protease stability score by item:
assay_summary: protease stability score; higher = more stable; yeast display proteolysis, trypsin and chymotrypsin;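 also: relative to predicted unfolded state with 0 unfolded-like and 1 meaning tenfold more protease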
quantity_name: protease stability score

seq_string: DEEDEQLHRFAQLYFEAMVTGDEDLLRHLLDPHVRVHINGRELHGRENMAKWLKDFWDKYKNVQLNLHHIRVIGDKVHMDVEMDVNGREERVHIHVEMIDGVVHSSHHRIE
quantity_name: protease stability score
measured: 1.02
//
seq_string: HEDEEIIERILREFLHYQNTGDEDELRKLADPNVRVIQGDKHFVGREEFRRWVHEHLSQVDHVELEIEDMRIVGDFVEIRGKLHNKAEGRSIKEEVRLVLFKFDGRWTLHDVRVH
quantity_name: protease stability score
measured: 2.09
//
seq_string: DEVDEDEKHALHLLEHSIKTGDERMITEMMDPRYRLIINGQEFHGRELWIELWQRIKNIRINDVKFEELRVVGNKLRVRVHLDVQIGDKRYILDTEIVAVKVNGRWLNEEIIIR
quantity_name: protease stability score
measured: 1.39
//
seq_string: TDDEEIWKIAIKMLRSAMHTGDEDTIKHLLDPNVRIEINGREIIGREIYAKHLREIRVDVERWEDHHIEVQGEFMHVKGRVVLTEEINGQEVREDVKLHVLVLKIDGQWRITSLYFR
quantity_name: protease stability score
measured: 0.754
//
seq_string: DDSERILRWFWNVLAESIETGDEEVMKELFDPNTRIHVNGQDHIGMEHRTRLASEMRITLYRVDLKRIHEVDGRIVLHIEVETHGTINGRLEHSKVRVQIIVSKIDGKWRMHQVEVK
quantity_name: protease stability score
measured: 1.38
//
seq_string: SEDKKTLEHYFRELMHVLQTGDETEFVKLLDPDARLIIGDKSDHGREEVSRSLLEFQRILGIDHLEFRHTHLDIQGDKITIILQVRMKVNGREHHSRLIFVAEKVNGRWVLRSVIFEIH
quantity_name: protease stability score
measured: 2.18
//
seq_string: TEDDKDWEEIYKMLEHASKTGDERIFNKFIDPNTMSVVNGVDLIGMERWRNHWEHARFRHIEFRHVEIIDGRLDIQGHLRGEYNGREIRTDMRLIILKIDGRWIHKSFEFH
quantity_name: protease stability score
measured: 0.944
//
seq_string: DEEEETLREMLRMSKEALETGDETELHELFDPNVRVVVDGVTLHGWEAWSQFLREIRLSIREVRIKRVDRVDGKIIIDGKFHRIIIQGDKTRENTIDAEVLIRKVDGKWVYEHDSYL
quantity_name: protease stability score
measured: 0.823
//
seq_string: DDQEEFLQRLVEELLRIIETGDWRRFWELLDPNMRVDVDGREIHGMEILVTIIRELWRKLGIDHVHIRLDHVEAFNGQAHAETTVDLRYDGQIIIRESRNHFIIIDGKVEDEKYELR
quantity_name: protease stability score
measured: 0.279
//
seq_string: SEEEEEADRLEEHWVKSLLTGDEEELAKNADPNTRLDIDGKIVHGMEHFIRFFSEIFKRVDHTEIRIRDSKFDGDKIHNRVEILIRFNGRTIRIDVRIIMRKVDGRWIHESMHIE
quantity_name: protease stability score
measured: 1.9
//
seq_string: SEEEELQRQLIEEFIRNRLTGDEDRLLELMDPNVRVRVGEKHAHGREEAIKLWHDHLHHWRIRHLTLRDYRVIDGKIHLHGEIHGEYNGKEHHTRTTIIIVHIDGRLRSIRIEID
quantity_name: protease stability score
measured: 2.12
//
seq_string: DQEERIAHKVAEFFLHALLTGDERLLTEYFDPHVRIIIHINGVEIRYHGREEWVEWLRDILRRFDVVRFHIRDIRNIGNKSIVHSEHREHVNGKSRSTRTELLIDVVDGRIHEVEIRIE
quantity_name: protease stability score
measured: 1.44
//
seq_string: SEEEEMLKHALEILTEVTDTGNWEEYEKLLDPDVRVHIGDKTLVGMEEILRYWMEYFKSLGVDHVETRVKEISHQGDKMHMDTTLRIHQGDKDLEFHVEIHAEKVNGRWFIKEINFE
quantity_name: protease stability score
measured: 1.75
//
seq_string: SESEEHSKKLFDTWVHSELTGDERSLLHLMDPHVKFIIDGREIHGREKASEFLVKLREHLGAEIHDYRVRDMKIQGEKVIIHSELDVQVDGVRHHERLVLIMHKIDGQWSVESVKRV
quantity_name: protease stability score
measured: 1.08
//
seq_string: DEHTEDTRHLEEFMLRAIKTGDEHILKRLMDPNARNEQGDKHQHGMEIIAEEWSRIKNVKVIFHRVRIQGDKIDVDGELIVNGVTMRVEFYSRKIDGRWVIHSVHFE
quantity_name: protease stability score
measured: 1.17
//
seq_string: SELDKVAEEHMEHFFHLYRTGDEDMTHELLDPHVRVSINGVETVGRELATKEVIDWVRKVKNVKTHIHHIEKINGKVIVDTRIHINGVDFRLVIWADKVNGRWHIREMEIR
quantity_name: protease stability score
measured: 1.36
//
seq_string: DEDREIAERFLRRWSHDTLTGDEDSLRDMVDPNVRLEYGDFTFHGREEWLKFFREIRVEDSHVHHMHVFNGQARIKLDFRVRFNGKELRTKVTLSVDKVDGRWIIRSIHFE
quantity_name: protease stability score
measured: 1.64
//
seq_string: SEIEEHIKHMAHEILHNMLTGDWRRFSELADPNVRITVQQGDKVREYHGWESWKLLLDELRLHRFEFKDMHVQGNYAHIIGRQVGEFDGVRQDRDIEIIHVVVNGRIKQVIVHVE
quantity_name: protease stability score
measured: 1.86
//
seq_string: SEHDHHSEWMSRLMFEAWLTGDEDFIMHLADPNTRSHLHYGDKEVNLHGRESFKRMVEELHRELGANHRDLKEVRLQGDKSLLRLEVRVGDKRREQHIIIIIVNGRVKSITVEVR
quantity_name: protease stability score
measured: 0.874
//
seq_string: SEEDSKAMEMLDEWLKWLLTGNEHIFRTLADPHVRLTIGDKEHVGREHVIRMFHELRIDHFHVHDVRTQGDKAFMSGRMEGTVDGKKEDTDIRIFLVIVNGRIKHIELRIH
quantity_name: protease stability score
measured: 1.52
//
seq_string: SEEEELSEIASRITIEILKTGDEHMLHELADPNARLDVNGVESHGRESVVKSFRMLGVKHWTLRDVKVVDGRVWIHGELHVDGKTRRLILIVEKINGRWVMEEIRIG
quantity_name: protease stability score
measured: 0.817
//
seq_string: TEEEREFKEFVEHWMRAIETGDEELLYKLLDPNTQLNYNGVNNHGWHVIKHLEELLGIKVREMRIRDFHHIGDKIVLDVEDIIRIDGRTIILRTEILIVKVDGRWHLKSERVK
quantity_name: protease stability score
measured: 0.965

// data source = the NTF2 design screens of Basanta et al. (2020)
